pIC50: −log10 of the molar value.
A set of compounds tested on PAK4 (PAK-4) (Homo sapiens, UniProt O96013), with measured pIC50:

COMPOUND | pIC50
CC(C)(C)OC(=O)Nc1ncsc1C#CCN1C(=O)c2ccccc2C1=O | 5.00 to 6.00
c1ccc(Cc2c[nH]c3ncsc23)cc1 [Compound A7, 6-benzyl-4H-pyrrolo[2,3-d]thiazole] | < 6.00
Nc1ncsc1C#Cc1cnc2[nH]ccc2c1 | 6.00 to 8.00
Nc1ncsc1C#Cc1cccc(O)c1 | < 6.00
CC(C)(C)OC(=O)Nc1nc(-c2ccncc2)sc1C#CCN1CCOCC1 | < 6.00

====

IC50, EPHB3 (Homo sapiens), per-entry values.

MOLECULE | SYSTEM_UNDER_TEST | IC50
Nc1ncsc1C#Cc1cccc(O)c1 [Compound A27, 3-(4-aminothiazol-5-ylethynyl)phenol] | EPHB3 (Homo sapiens) | 1 to 10 µM
Nc1ncsc1C#Cc1cnc2[nH]ccc2c1 [Compound A22] | EPHB3 (Homo sapiens) | 10 to 100 µM
c1ccc(Cc2c[nH]c3ncsc23)cc1 [Compound A7, 6-benzyl-4H-pyrrolo[2,3-d]thiazole] | EPHB3 (Homo sapiens) | > 1 µM
CC(C)(C)OC(=O)Nc1nc(-c2ccncc2)sc1C#CCN1CCOCC1 [Compound A25] | EPHB3 (Homo sapiens) | > 1 µM
CC(C)(C)OC(=O)Nc1ncsc1C#CCN1C(=O)c2ccccc2C1=O [Compound A26] | EPHB3 (Homo sapiens) | 1 to 10 µM

====

biological target: CHEK2 (Homo sapiens, UniProt O96017)
Sequence (O96017 whole entry, species assumed): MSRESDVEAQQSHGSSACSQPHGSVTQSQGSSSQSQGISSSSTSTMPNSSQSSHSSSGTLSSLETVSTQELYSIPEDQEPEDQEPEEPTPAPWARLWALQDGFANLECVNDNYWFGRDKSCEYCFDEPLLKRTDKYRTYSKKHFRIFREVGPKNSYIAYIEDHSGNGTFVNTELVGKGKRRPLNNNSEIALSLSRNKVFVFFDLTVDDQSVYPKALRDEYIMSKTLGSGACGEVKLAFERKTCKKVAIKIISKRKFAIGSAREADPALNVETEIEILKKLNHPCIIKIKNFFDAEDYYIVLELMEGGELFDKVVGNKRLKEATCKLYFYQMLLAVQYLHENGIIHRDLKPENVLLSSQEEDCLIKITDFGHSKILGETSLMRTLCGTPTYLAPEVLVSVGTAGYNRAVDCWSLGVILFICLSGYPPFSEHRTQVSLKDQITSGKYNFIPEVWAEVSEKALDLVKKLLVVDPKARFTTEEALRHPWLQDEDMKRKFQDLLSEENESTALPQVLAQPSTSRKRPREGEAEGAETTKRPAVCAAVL
pIC50: −log10 of the molar value.

MOLECULE | pIC50
Nc1ncsc1C#Cc1cnc2[nH]ccc2c1 | < 6.00
c1ccc(Cc2c[nH]c3ncsc23)cc1 [Compound A7, 6-benzyl-4H-pyrrolo[2,3-d]thiazole] | < 6.00
CC(C)(C)OC(=O)Nc1nc(-c2ccncc2)sc1C#CCN1CCOCC1 | < 6.00
CC(C)(C)OC(=O)Nc1ncsc1C#CCN1C(=O)c2ccccc2C1=O | < 6.00
Nc1ncsc1C#Cc1cccc(O)c1 | 4.00 to 5.00

====

The reader will find reported pIC50 values listed item by item below.
target: CAMKK2 (Homo sapiens)
Sequence (Q96RR4 whole entry, species assumed): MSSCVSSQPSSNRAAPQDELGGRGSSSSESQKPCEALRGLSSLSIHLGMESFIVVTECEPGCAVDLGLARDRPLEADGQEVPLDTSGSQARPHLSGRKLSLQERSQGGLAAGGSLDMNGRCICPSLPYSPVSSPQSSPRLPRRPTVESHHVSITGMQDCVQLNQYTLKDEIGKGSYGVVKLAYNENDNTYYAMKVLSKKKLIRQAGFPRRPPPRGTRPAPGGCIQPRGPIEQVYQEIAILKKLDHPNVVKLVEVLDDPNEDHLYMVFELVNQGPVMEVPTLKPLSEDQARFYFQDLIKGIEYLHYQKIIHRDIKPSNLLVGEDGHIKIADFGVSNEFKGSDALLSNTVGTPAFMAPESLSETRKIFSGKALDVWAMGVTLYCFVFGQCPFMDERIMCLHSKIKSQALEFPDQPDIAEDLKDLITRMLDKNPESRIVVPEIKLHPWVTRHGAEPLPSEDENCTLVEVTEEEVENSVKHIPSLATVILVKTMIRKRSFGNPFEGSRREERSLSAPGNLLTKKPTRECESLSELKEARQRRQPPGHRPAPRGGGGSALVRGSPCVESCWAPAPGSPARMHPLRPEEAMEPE
pIC50: −log10 of the molar value.

MOLECULE | pIC50
CC(C)(C)OC(=O)Nc1ncsc1C#CCN1C(=O)c2ccccc2C1=O | 4.00 to 5.00
CC(C)(C)OC(=O)Nc1nc(-c2ccncc2)sc1C#CCN1CCOCC1 | < 6.00
c1ccc(Cc2c[nH]c3ncsc23)cc1 [Compound A7, 6-benzyl-4H-pyrrolo[2,3-d]thiazole] | 4.00 to 5.00
Nc1ncsc1C#Cc1cccc(O)c1 | 4.00 to 5.00
Nc1ncsc1C#Cc1cnc2[nH]ccc2c1 | < 6.00

====

Target: TBK1 (Homo sapiens, UniProt Q9UHD2)
Sequence (Q9UHD2 1-729): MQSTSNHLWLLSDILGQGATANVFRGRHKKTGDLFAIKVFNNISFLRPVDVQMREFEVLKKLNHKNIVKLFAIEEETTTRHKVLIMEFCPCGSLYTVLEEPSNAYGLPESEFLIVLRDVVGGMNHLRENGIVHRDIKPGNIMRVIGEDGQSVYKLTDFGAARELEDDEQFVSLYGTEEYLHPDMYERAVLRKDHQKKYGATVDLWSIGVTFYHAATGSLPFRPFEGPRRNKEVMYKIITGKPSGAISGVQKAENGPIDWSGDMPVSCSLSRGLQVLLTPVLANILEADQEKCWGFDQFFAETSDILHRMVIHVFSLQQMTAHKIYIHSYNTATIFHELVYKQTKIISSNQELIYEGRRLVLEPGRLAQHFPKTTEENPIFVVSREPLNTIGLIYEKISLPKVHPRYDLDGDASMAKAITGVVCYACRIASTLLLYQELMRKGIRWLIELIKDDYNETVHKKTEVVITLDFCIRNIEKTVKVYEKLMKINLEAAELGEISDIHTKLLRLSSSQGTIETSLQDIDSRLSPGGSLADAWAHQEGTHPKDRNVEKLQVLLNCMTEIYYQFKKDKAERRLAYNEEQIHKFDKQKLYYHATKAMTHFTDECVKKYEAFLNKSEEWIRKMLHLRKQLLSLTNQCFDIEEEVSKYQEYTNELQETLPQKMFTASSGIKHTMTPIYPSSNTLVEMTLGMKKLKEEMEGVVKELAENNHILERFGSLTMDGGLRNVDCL
pIC50: −log10 of the molar value.

COMPOUND | pIC50
Nc1ncsc1C#Cc1cccc(O)c1 | < 6.00
CC(C)(C)OC(=O)Nc1nc(-c2ccncc2)sc1C#CCN1CCOCC1 | 4.00 to 5.00
CC(C)(C)OC(=O)Nc1ncsc1C#CCN1C(=O)c2ccccc2C1=O | < 6.00
Nc1ncc(-c2cnn(C3CCNCC3)c2)cc1-c1nc2[nH]c(-c3ccc(F)cc3)cc2s1 | 6.00 to 8.00
Nc1ncsc1C#Cc1cnc2[nH]ccc2c1 | < 6.00
c1ccc(Cc2c[nH]c3ncsc23)cc1 [Compound A7, 6-benzyl-4H-pyrrolo[2,3-d]thiazole] | < 6.00

====

Endpoint: IC50. System: MAPKAPK5 (Homo sapiens). Items follow.
Sequence (Q8IW41 whole entry, species assumed): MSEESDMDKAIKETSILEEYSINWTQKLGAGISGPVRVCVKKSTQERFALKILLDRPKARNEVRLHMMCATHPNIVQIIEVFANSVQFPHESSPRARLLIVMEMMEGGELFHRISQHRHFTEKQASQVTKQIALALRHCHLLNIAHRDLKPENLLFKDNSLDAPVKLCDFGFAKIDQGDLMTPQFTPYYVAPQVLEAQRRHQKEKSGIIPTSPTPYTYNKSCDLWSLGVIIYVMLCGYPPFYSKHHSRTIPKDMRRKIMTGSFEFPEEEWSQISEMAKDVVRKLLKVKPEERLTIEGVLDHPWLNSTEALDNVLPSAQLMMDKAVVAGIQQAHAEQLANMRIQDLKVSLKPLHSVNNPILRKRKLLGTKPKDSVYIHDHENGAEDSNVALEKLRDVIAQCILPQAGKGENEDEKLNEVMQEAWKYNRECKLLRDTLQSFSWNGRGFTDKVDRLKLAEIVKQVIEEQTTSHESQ

COMPOUND | IC50
c1ccc(Cc2c[nH]c3ncsc23)cc1 [Compound A7, 6-benzyl-4H-pyrrolo[2,3-d]thiazole] | > 1 µM
CC(C)(C)OC(=O)Nc1ncsc1C#CCN1C(=O)c2ccccc2C1=O [Compound A26] | 1 to 10 µM
CC(C)(C)OC(=O)Nc1nc(-c2ccncc2)sc1C#CCN1CCOCC1 [Compound A25] | > 1 µM
Nc1ncsc1C#Cc1cccc(O)c1 [Compound A27, 3-(4-aminothiazol-5-ylethynyl)phenol] | 10 to 100 µM
Nc1ncsc1C#Cc1cnc2[nH]ccc2c1 [Compound A22] | 10 to 100 µM

====

# IC50 per entry for ROCK2 (Rock II) (Homo sapiens, UniProt O75116)
MEASURED_METRIC: IC50

COMPOUND | REPORTED_MEASUREMENT
Nc1ncsc1C#Cc1cnc2[nH]ccc2c1 [Compound A22] | > 1 µM
CC(C)(C)OC(=O)Nc1nc(-c2ccncc2)sc1C#CCN1CCOCC1 [Compound A25] | 10 to 100 µM
CC(C)(C)OC(=O)Nc1ncsc1C#CCN1C(=O)c2ccccc2C1=O [Compound A26] | > 1 µM
Nc1ncsc1C#Cc1cccc(O)c1 [Compound A27, 3-(4-aminothiazol-5-ylethynyl)phenol] | 10 to 100 µM
c1ccc(Cc2c[nH]c3ncsc23)cc1 [Compound A7, 6-benzyl-4H-pyrrolo[2,3-d]thiazole] | 0.01 to 1 µM

====

Form field: IC50 (one value per entry).
target: MAPKAPK2 (Homo sapiens, UniProt P49137)
Sequence (P49137 whole entry, species assumed): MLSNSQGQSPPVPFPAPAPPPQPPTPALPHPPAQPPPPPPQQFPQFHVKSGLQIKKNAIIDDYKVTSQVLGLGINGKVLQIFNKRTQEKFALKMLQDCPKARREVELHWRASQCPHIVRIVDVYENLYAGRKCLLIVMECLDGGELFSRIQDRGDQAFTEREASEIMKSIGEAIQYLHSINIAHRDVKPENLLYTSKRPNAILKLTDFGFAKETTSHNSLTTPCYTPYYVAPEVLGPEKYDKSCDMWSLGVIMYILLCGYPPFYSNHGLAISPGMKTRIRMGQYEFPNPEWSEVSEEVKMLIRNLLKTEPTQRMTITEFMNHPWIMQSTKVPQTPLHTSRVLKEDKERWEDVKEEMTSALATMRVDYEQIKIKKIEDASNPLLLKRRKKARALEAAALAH
MEASURED_METRIC: IC50

COMPOUND | SYSTEM_UNDER_TEST | MEASURED_METRIC | REPORTED_MEASUREMENT
CC(C)(C)OC(=O)Nc1ncsc1C#CCN1C(=O)c2ccccc2C1=O | MAPKAPK2 (Homo sapiens, UniProt P49137) | IC50 | 10 to 100 µM
CC(C)(C)OC(=O)Nc1nc(-c2ccncc2)sc1C#CCN1CCOCC1 | MAPKAPK2 (Homo sapiens, UniProt P49137) | IC50 | > 1 µM
Nc1ncsc1C#Cc1cnc2[nH]ccc2c1 | MAPKAPK2 (Homo sapiens, UniProt P49137) | IC50 | > 1 µM
c1ccc(Cc2c[nH]c3ncsc23)cc1 [Compound A7, 6-benzyl-4H-pyrrolo[2,3-d]thiazole] | MAPKAPK2 (Homo sapiens, UniProt P49137) | IC50 | > 1 µM
Nc1ncsc1C#Cc1cccc(O)c1 | MAPKAPK2 (Homo sapiens, UniProt P49137) | IC50 | 10 to 100 µM

====

Each item that follows carries a reported IC50.
target: UniProt:Q02750
Sequence (Q02750 whole entry, species assumed): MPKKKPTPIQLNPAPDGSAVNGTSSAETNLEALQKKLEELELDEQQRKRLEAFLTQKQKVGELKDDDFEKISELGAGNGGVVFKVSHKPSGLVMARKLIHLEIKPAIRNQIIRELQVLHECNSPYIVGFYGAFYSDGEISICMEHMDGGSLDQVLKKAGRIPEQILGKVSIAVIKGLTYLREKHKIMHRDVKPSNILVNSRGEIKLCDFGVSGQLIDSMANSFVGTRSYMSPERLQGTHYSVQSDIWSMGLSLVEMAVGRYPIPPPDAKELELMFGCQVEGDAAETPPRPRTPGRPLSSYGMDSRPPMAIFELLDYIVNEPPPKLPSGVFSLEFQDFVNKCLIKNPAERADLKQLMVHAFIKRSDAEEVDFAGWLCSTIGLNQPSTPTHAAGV
MEASURED_METRIC: IC50

COMPOUND | REPORTED_MEASUREMENT
CC(C)(C)OC(=O)Nc1ncsc1C#CCN1C(=O)c2ccccc2C1=O [Compound A26] | 1 to 10 µM
Nc1ncsc1C#Cc1cccc(O)c1 [Compound A27, 3-(4-aminothiazol-5-ylethynyl)phenol] | > 1 µM
Nc1ncsc1C#Cc1cnc2[nH]ccc2c1 [Compound A22] | 0.01 to 1 µM
c1ccc(Cc2c[nH]c3ncsc23)cc1 [Compound A7, 6-benzyl-4H-pyrrolo[2,3-d]thiazole] | 1 to 10 µM
CC(C)(C)OC(=O)Nc1nc(-c2ccncc2)sc1C#CCN1CCOCC1 [Compound A25] | 1 to 10 µM

====

Sequence of the target: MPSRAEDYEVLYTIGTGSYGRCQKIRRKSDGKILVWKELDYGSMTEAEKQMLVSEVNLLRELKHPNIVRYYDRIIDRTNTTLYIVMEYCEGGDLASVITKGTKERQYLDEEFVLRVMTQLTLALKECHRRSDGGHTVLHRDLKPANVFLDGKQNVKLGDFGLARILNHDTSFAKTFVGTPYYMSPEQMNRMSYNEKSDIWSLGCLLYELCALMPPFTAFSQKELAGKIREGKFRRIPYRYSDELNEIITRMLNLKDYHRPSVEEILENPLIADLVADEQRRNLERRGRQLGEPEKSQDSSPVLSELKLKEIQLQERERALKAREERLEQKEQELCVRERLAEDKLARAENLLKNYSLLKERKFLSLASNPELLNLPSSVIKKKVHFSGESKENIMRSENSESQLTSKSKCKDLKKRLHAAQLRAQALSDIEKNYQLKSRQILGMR
pIC50: −log10 of the molar value.

MOLECULE | pIC50
CC(C)(C)OC(=O)Nc1ncsc1C#CCN1C(=O)c2ccccc2C1=O | 5.00 to 6.00
CC(C)(C)OC(=O)Nc1nc(-c2ccncc2)sc1C#CCN1CCOCC1 | 5.00 to 6.00
Nc1ncsc1C#Cc1cnc2[nH]ccc2c1 | < 6.00
Nc1ncsc1C#Cc1cccc(O)c1 | 5.00 to 6.00
c1ccc(Cc2c[nH]c3ncsc23)cc1 [Compound A7, 6-benzyl-4H-pyrrolo[2,3-d]thiazole] | < 6.00
